- Test system: SF-268 CNS
- measurement description: NCI-60 one-dose screen, 48 h
- test context: 10 µM
Compounds without any hit were thinned out: in the full panel of roughly 83,000, 20% have a hit. The source made the active and inactive calls. Rule for the calls: active = growth percent below 10; inactive = the rest.
Outcomes: class 1 = active, class 0 = inactive

compound	class
O=C(Nc1cccc(Cl)c1)Nc1cc2ncncc2cc1OCc1cccc(F)c1	class 0
COc1cc(C2c3cc4c(cc3C(O)C(CO)C2CO)OCO4)cc(OC)c1OC (stereo not given)	class 0
O=C(COc1ccc(Cl)cc1Cl)Oc1coc(CSc2nc3ccccc3s2)cc1=O	class 0
Cc1cc(/C=C2\SC(=Nc3ccccc3)N(C3CCCC3)C2=O)c(C)n1-c1ccc(Cl)cc1	class 1
O=S(=O)(NC1c2ccccc2Oc2ccccc21)c1ccccc1	class 0
CCOC(=O)c1ccc(N(C=O)CCC(=O)CCl)cc1	class 1
O=C(CCl)N1c2ccccc2Sc2ccc3ccccc3c21	class 1
CCc1ccc(-c2nnc(COc3ccc(-c4nc5cc(Cl)c(Cl)cc5[nH]4)cc3OC)o2)cc1	class 0
C=CCOc1ccc2c(c1)CC[C@@H]1[C@@H]2CC[C@]2(C)C(=O)/C(=N/O)C[C@@H]12	class 0
Fc1ccc2[nH]c3c(NCCCN4CCOCC4)ncnc3c2c1	class 0
